- protocol-details: in vitro
- stated-conditions: dog, CC50, run with Influenza A H3N2 Perth/16/2006 (so in the source); Visual
Bridge positions count the residues as written; N and C are the ends. Square brackets hold non-standard residues; d marks the D form. Peptide text beside a SMILES is read from it. R8 = C=CCCCCCC[C@@](C)(N)C(=O)O; S5 = C=CCCC[C@](C)(N)C(=O)O; Nle = CCCC[C@H](N)C(=O)O
readout-label: CC50

compound	assay-result
CCCC[C@H](NC(C)=O)C(=O)N[C@@H](CC(=O)O)C(=O)N[C@H](C(=O)N[C@@H](CC(N)=O)C(=O)N[C@]1(C)CCCCCCC=CCCC[C@@](C)(C(=O)N[C@@H](CCC(N)=O)C(=O)N[C@@H](C)C(=O)N[C@@H](C)C(=O)N[C@@H](C)C(=O)N[C@@H](C)C(N)=O)NC(=O)[C@H](C)NC(=O)[C@H](CC(C)C)NC(=O)[C@H](Cc2ccccc2)NC(=O)[C@H](CC(C)C)NC(=O)[C@H](CC(C)C)NC(=O)[C@H]([C@@H](C)O)NC1=O)C(C)C [SP-27] (Ac-[Nle]DVN[R8]TLLFLA[S5]QAAAA-NH2; staple 5-12)	> 100 µM
